Would you mind telling me the reported % increase in LDL Uptake of each entry?
target of assay: PCSK9 (Homo sapiens, UniProt Q8NBP7)
Sequence (Q8NBP7 153-692): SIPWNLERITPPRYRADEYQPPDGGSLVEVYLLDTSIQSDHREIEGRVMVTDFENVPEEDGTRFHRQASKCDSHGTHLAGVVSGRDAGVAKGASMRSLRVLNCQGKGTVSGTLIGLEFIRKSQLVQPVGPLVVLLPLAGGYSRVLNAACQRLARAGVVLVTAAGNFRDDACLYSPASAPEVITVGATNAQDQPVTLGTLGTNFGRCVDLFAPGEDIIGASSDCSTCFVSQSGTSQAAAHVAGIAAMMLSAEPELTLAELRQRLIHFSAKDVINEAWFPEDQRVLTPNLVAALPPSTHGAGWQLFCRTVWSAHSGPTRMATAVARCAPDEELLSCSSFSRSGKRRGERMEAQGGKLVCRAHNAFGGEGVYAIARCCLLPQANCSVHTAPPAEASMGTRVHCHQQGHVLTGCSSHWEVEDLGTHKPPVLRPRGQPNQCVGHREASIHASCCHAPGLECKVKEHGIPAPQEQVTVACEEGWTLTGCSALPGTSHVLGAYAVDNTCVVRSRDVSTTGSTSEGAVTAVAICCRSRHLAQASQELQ
assay name: BODIPY-LDL uptake assay in HepG2 cells
Type: cell-based
applied conditions: 30 μM test compound, 5 μg/ml PCSK9, BODIPY-LDL
Report the figure in % without appending any unit label.

Bench note, PCSK9 (Homo sapiens, UniProt Q8NBP7): O=C(c1cccc(C2(O)COC2)c1)N1CC2CN(c3ccc(C(F)(F)F)cn3)CC2C1 (stereo not shown) , % increase in LDL Uptake reads 0

Bench note, PCSK9 (Homo sapiens, UniProt Q8NBP7): `CCOC1(c2ccc(C(=O)N3CCN(c4ccc(C(F)(F)F)cn4)CC3)cc2)COC1` , % increase in LDL Uptake reads 15

Bench note, PCSK9 (Homo sapiens, UniProt Q8NBP7): `CN1CCN(c2cc(NC(=O)C3CCN(c4ccc(C(F)(F)F)cc4)CC3)cc(C3(O)COC3)c2)CC1` , % increase in LDL Uptake reads 73

Bench note, PCSK9 (Homo sapiens, UniProt Q8NBP7): `O=C(O)c1cc(C2(O)COC2)ccc1N1CCC(c2ccc(C(F)(F)F)cc2)CC1` , % increase in LDL Uptake reads 37
